- Test system: L. donovani intramacrophage amastigotes
- assayComment: L. donovani intramacrophage compound sensitivity assay
- Format: cell-based
- reportedConditions: Leishmania donovani, read-out: Intra-macrophage EC50
experimentalEndpoint: pEC50
Convention used: pEC50 is expressed as -log10 of the molar concentration.

Query: Kindly indicate its recorded pEC50. Item: Cc1nnc(-c2nc(NCc3ccc(Cl)cc3)c3cccnc3c2O)[nH]1 [Compound 1]
Response: 5.68

###

- Test system: T. brucei bloodstream forms
- assayComment: microbe, parasite or virus in culture
- reportedConditions: Trypanosoma brucei, read-out: Mean EC50 ± SD, Plus cation, plus CuCl2 (5 μM)
- Protocol: The clonal Leishmania donovani cell line LdBOB (derived from MHOM/SD/62/1S-CL2D) was grown as promastigotes at 28°C, as described previously ([53]). Bloodstream-form T. brucei MiTat 1.2 clone 221a and its derived subline, 2T1, were cultured at 37°C in the presence of 5% CO2 in HMI9-T medium, as described previously ([54]). […] In the first instance, the maximum tolerated concentrations of ZnCl2, CaCl2, CuCl2, MgCl2, MnCl2, and FeCl2 were determined for each cell type. […]
experimentalEndpoint: pEC50
Convention used: pEC50 is expressed as -log10 of the molar concentration.

Query: Kindly indicate its recorded pEC50. Item: CC(NC(=O)c1ncc2cccnc2c1O)c1ccc(F)cc1 (stereo not drawn)
Response: 6.10

Query: Kindly indicate its recorded pEC50. Item: COc1ccccc1-c1nc(-c2nc(C)n[nH]2)c(O)c2ncccc12
Response: 5.89

Query: Kindly indicate its recorded pEC50. Item: Cc1nnc(-c2nc(NCc3ccc(Cl)cc3)c3cccnc3c2O)[nH]1
Response: 6.40
